Entry source: patent US20250152746A1

# System: ANGPTL3 gene
# assay notes: ANGPTL3 gRNA/SpCas9 editing in primary cynomolgus hepatocytes (Table 3)
# Type: cell-based, cynomolgus monkey
# Protocol: In set of experiments, PCSK9 gRNAs were co-transfected with an equivalent amount (1:1 ratio by weight) of in vitro transcribed commercially available SpCas9 mRNA MS002 purchased from TriLink Biotechnologies into primary human hepatocytes at 2500, 500, or 100 ng/RNA/mL and processed as described in detailed methods. Extracted genomic DNA was analyzed for gene editing at the target site with next-generation sequencing of PCR amplicons generated around the target sites. […]
Listing: Cyno Primary Hepatocyte Editing % 500 ng/ml of selected molecules
value type: Cyno Primary Hepatocyte Editing % 500 ng/ml

>>> value("GA122: ANGPTL3 gRNA; protospacer CTTTTATTTGACTATGCTGT (SEQ ID NO: 120) (nucleic acid, 2'-O-methyl at 1, 2, other sugars, backbone and T or U not given here; further chemistry not fully specified) guide: CUTTTATTTGACTATGCTGTGTTTTAGAGCTAGAAATAGCAAGTTAAAATAAGGCTAGTCCGTTATCAACTTGAAAAAGTGGCACCGAGTCGGTGCTTTT")
"16.76%"
>>> value("GA108: ANGPTL3 gRNA; protospacer TCCCAACTGAAGGAGGCCAT (SEQ ID NO: 106) (nucleic acid, 2'-O-methyl at 1, 2, other sugars, backbone and T or U not given here; further chemistry not fully specified) guide: UCCCAACTGAAGGAGGCCATGTTTTAGAGCTAGAAATAGCAAGTTAAAATAAGGCTAGTCCGTTATCAACTTGAAAAAGTGGCACCGAGTCGGTGCTTTT")
"15.49%"
>>> value("GA145: ANGPTL3 gRNA; protospacer CATTATATTCAGGTAGTCCA (SEQ ID NO: 143) (nucleic acid, 2'-O-methyl at 1, 2, other sugars and backbone not given here; further chemistry not fully specified) guide: CATTATATTCAGGTAGTCCAGTTTTAGAGCTAGAAATAGCAAGTTAAAATAAGGCTAGTCCGTTATCAACTTGAAAAAGTGGCACCGAGTCGGTGCTTTT")
"30.34%"
>>> value("GA109: ANGPTL3 gRNA; protospacer GGCCTCCTTCAGTTGGGACA (SEQ ID NO: 107) (nucleic acid, 2'-O-methyl at 1, 2, other sugars and backbone not given here; further chemistry not fully specified) guide: GGCCTCCTTCAGTTGGGACAGTTTTAGAGCTAGAAATAGCAAGTTAAAATAAGGCTAGTCCGTTATCAACTTGAAAAAGTGGCACCGAGTCGGTGCTTTT")
"15.11%"
